# System: 786-0
# procedure_text: NCI tumour cell line growth inhibition, 48 h
Activity calls are given as the source filed them. Rule as the data show it: active = GI50 up to about 1.1 µM and inactive = higher.
Outcomes: class 1 for active, class 0 for inactive

molecule="CC(=O)C1=C(C)N(c2ccc(C)cc2)C2(O)C=CC(O)=C3C(=O)c4ccccc4C(=O)C312 (stereo not given)" category="class 0"
molecule=COC(=O)C12CC3CC(C1)CC(C(=O)OC)(C3)C2 category="class 0"
molecule="COC(=O)C1=COC2OC3CC1C2C(C)O3 (stereo not given)" category="class 0"
molecule="CCC12CCCN(Cc3ccccc3)C1c1c(n(C)c3ccccc13)C(C(=O)OC)C2 (stereo not given)" category="class 0"
molecule="COc1ccc(-c2c3c(n(C4OC(COC(C)=O)C(OC(C)=O)C(OC(C)=O)C4OC(C)=O)c(=S)c2C#N)CCC3)cc1 (stereo not given)" category="class 0"
molecule=COCn1cc(C2=C(C)C(=O)C(C)=C(C)C2=O)cn1 category="class 0"
molecule=Cc1ccc2nc3cc(C)c(=O)cc-3sc2c1 category="class 0"
molecule=COCOc1ccc(Cn2c(=O)n(C)c(=O)c3c2ncn3C)cc1[N+](=O)[O-] category="class 0"
molecule=COc1cccc([C@@]2(O)c3c(ccc(O)c3OC)[C@H]2OC)c1OC category="class 0"
molecule=COc1cc(Cn2c3c(c4c(C(=O)NCCN(C)C)c(O)ccc42)C(=O)c2ccccc2C3=O)cc(OC)c1 category="class 1"
